Biological target: human GPR39 receptor (Homo sapiens)
Construct: PC3 Cells, Expressing the Endogenous Human GPR39 Receptor; endogenous in cells
Sequence (O43194 1-453): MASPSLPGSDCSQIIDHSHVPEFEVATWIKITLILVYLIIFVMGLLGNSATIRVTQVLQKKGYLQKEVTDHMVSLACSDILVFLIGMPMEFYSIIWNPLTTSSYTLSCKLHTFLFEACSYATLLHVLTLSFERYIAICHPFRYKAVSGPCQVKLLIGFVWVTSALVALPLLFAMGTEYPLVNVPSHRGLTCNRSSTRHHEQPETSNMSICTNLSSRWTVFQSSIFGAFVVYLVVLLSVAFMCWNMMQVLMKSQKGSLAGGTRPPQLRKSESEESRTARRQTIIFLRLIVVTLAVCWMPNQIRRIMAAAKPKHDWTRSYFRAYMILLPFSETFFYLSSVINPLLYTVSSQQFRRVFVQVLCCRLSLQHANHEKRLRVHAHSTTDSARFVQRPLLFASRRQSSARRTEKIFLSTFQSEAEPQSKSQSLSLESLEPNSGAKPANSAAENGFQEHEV
Test: Measurement of intracellular calcium response in PC3 cells (FLIPR), antagonism of the C3 agonist response
Conditions: functional pKi (modified Cheng-Prusoff), inhibition of the C3 (TC-G 1008) response at EC90, 30 μM ZnCl2, read-out: fpKi activity
pKi: −log10 of the molar value.
Result Type: pKi

Quick one: pKi for CCCN1CCN(C(=O)c2ccc(NC(=O)C3CC3(F)F)cc2N2CCCCCC2)CC1 (stereo not drawn) [Example 92] ?
6.00 to 6.50

Which pKi reading was recorded for the molecule C[C@@H]1C[C@@H](C)CN(c2cc(NC(=O)C3CC3)ccc2-c2nnc(Sc3ccccc3)n2C)C1 (relative stereo) [Example 114a] ?
6.60 to 7.20

Item under review: CN1CCN(C(=O)c2ccc(NC(=O)C3CC3)cc2N2CCCCC2)C(c2ccccc2)C1 (racemic) [Example 201c] . Reported pKi?
6.60 to 7.20

Quick one: pKi for CC1CC(C)CN(c2cc(NC(=O)C3CC3)ccc2-c2nnc(Sc3ccccc3)n2C)C1 (stereo not drawn) [Example 114c] ?
6.60 to 7.20

Any idea what pKi was measured for CCCN1CCN(C(=O)c2ncc(NC(=O)C3CC3)nc2N2CCCCCC2)CC1 [Example 106] ?
5.20 to 5.90

# lookup: pKi of O=C(Nc1ccc(C(=O)N2CCN(Cc3ccccc3F)CC2)c(N2CCCCCC2)c1)C1CC1 [Example 28]
6.60 to 7.20

Field request: pKi | item: O=C(Nc1ccc(C(=O)N2CCS(=O)(=O)CC2)c(N2CCCC3(CC3)C2)c1)C1CC1 [Example 189]
6.60 to 7.20

# query: pKi of entry CCCN1CCN(C(=O)c2ccc(NC(=O)C3CC3)cc2N2CC3(CCOCC3)C2)CC1 [Example 4]
6.00 to 6.50

Recorded pKi of Cc1nnc(-c2ccc(C(=O)N3CCN(C)CC3c3ccccc3)c(N3CCCC3)c2)[nH]1 (single isomer, unassigned) [Example 150a] , please.
6.60 to 7.20

I would be grateful if you could share the reported pKi for CN1CCN(C(=O)c2ccc(NC(=O)C3CC3)cc2N2CCCC2)C(c2cccc(Cl)c2)C1 (racemic) [Example 171c] .
≥ 7.30

What does the record list as pKi for CN1CCN(C(=O)c2ccc(NC(=O)C3CC3)cc2N2CCC(C(F)(F)F)C2)C(c2ccccc2)C1 (single isomer, unassigned) [Example 199c] ?
6.60 to 7.20

Fill in: pKi of CN(C)C(=O)N1CCN(C(=O)c2ccc(NC(=O)C3CC3)cc2N2CCCC2)C(c2ccccc2)C1 (stereo not drawn) [Example 216] is ___
6.60 to 7.20

State the recorded pKi for this entry: CCCC1CCN(C(=O)c2ccc(NC(=O)C3CC3)cc2N2CCCCCC2)CC1 [Example 47]
6.60 to 7.20

What value of measured pKi is listed for CN1CCN(C(=O)c2ccc(NC(=O)C3CC3)cc2N2CCCC2)C(c2cccs2)C1 (single isomer, unassigned) [Example 86b] ?
≥ 7.30

Name the reported pKi value associated with the molecule Cn1c(Sc2ccccc2)nnc1-c1ccc(NC(=O)C2CC2)cc1N1CCCCCC1 [Example 110]
6.60 to 7.20

These measurements were taken from patent US20230174484A1.
